# assay-name: yeast display, Sf9 membrane polyspecificity reagent, FACS + sequencing; frameworks hold sequencing errors
measurement-label: polyreactivity (PSR sort gate)

>>> reported_result("QVQLVESGGGLVQAGGSLRVSCAASGYTFDLYAMGWYRQAPGKERELVADISSGGSTNYADSVKGRFTISRDNAKNTVYLQMNSLKPEDTAVYYCAVDADRTLFGQYYVSEYGGGYWGQGTQVTVSS")
"low polyreactivity"
>>> reported_result("QVQLVESGGGLVQAGGSLRLSCAASGRNFVAYTMGWYRQAPGKERELVAAISTNGGRTYYADSVKGRFTISRDNAKITVYLQMNSLKPEDTAVYYCAAYRGPRADYYWGQGTQVTVSS")
"high polyreactivity"
>>> reported_result("HVQLVESGGGLVQAGGSLRLSCAASGSIFGHYAMGWYRQATGKERELVAAISSGGSTNYADSVKGRFTISRDNAKNTVYLQMNSLIPEDTAVYYCAPTSWWPPGYDYWGQGTQVTVSS")
"high polyreactivity"
>>> reported_result("QVQLVESGGGLVQAGGSLRLSCADSGRTFYRYAMVWYRQSPGKERELVAAITTSGGSTYYADSVKGRFTISRDNAKNTVYLQMNSLKPEDTAVYYCAATYYGYHIRDDYWGQGTQVTVSS")
"low polyreactivity"
>>> reported_result("QVQLVESGGGLVQAGGSLRLSCAASGRIFGIYAMGGSRQAPGKERELVASITDGTITYYADSVKGRFTISRDNAKNTVYLQMNSLKPEDTAVYYCAAGTQAHAYVVRPIEMDYWGQGTQVTVSS")
"low polyreactivity"
